Sourced from patent US20200095340A1

Target: biotinylated human DLL3 protein expressed as a human IgG1 fusion protein (human) (UniProt Q9NYJ7)
Sequence (Q9NYJ7 other isoform, or with tags, fused parts or gaps): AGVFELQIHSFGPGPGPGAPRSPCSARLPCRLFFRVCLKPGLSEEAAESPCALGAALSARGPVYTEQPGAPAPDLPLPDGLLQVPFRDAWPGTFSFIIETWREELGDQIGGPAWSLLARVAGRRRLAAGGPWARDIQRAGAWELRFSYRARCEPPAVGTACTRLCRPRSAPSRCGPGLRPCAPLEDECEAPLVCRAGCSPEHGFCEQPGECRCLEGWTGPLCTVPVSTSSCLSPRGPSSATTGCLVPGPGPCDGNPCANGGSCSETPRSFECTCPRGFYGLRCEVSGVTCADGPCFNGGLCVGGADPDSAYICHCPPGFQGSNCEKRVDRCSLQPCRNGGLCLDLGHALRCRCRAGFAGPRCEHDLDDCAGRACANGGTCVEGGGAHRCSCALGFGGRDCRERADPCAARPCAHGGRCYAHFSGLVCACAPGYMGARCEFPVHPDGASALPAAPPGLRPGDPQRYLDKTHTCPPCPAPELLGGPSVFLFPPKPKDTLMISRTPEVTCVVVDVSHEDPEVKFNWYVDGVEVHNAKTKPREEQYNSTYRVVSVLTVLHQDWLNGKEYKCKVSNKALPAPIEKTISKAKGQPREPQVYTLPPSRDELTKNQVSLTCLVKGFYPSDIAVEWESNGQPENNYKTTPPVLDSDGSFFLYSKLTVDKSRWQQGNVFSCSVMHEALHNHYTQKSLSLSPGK
Measurement Description: Octet BLI; biotinylated huDLL3-IgG1 fusion on streptavidin tips; single 50 nM; conditioned medium
Each entry below lists one item and its recorded Kd value.
The response must be a number in nM with no trailing unit.

Below, each entry is followed by its recorded Kd result.
anti-DLL3 trispecific protein 4G08 (protein, part only; not given: anti-CD3 fragment and anti-albumin sdAb, part only) chain, part: EVQLVESGGGLVQPGGSLTLSCAASGSSVRFLSMAWYRQAPGKKRELVAGISTDGSTDYIDSVKGRFTISRDNAKNSVYLQMNSLRAEDTAVYYCYAYRWTTRYRYWGQGTLVTVSSGGGGSGGGSGGGGSGGGSHHHHHH: 7.6
anti-DLL3 trispecific protein 4E08 (protein, part only; not given: anti-CD3 fragment and anti-albumin sdAb, part only) chain, part: EVQLVESGGGLVQPGGSLTLSCAASGSSVKFLSMAWYRQAPGKKRELVAGISTDGSTDYIDSVKGRFTISRDNAKNSVYLQMNSLRAEDTAVYYCYAYKWTTRYTYWGQGTLVTVSSGGGGSGGGSGGGGSGGGSHHHHHH: 7.2
anti-DLL3 trispecific protein 2A03 (protein, part only; not given: CD3 fragment and albumin sdAb, part only) chain, part: EVQLVESGGGLVQPGGSLTLSCVASGTTSSINAMGWYRRAPGKQRELVAGISSDGSKVYGDSVKGRFTISRDNAKNSVYLQMNSLRAEDTAVYYCYYFRTVSGSAMRYWGQGTLVTVSSGGGGSGGGSGGGGSGGGSHHHHHH: 8.2

Here's the next entry for you.
Enquiry: Recorded Kd of anti-DLL3 trispecific protein 1E011 (protein, part only; not given: anti-CD3 and anti-albumin domains, part only) chain, part: EVQLVESGGGLVQPGGSLTLSCVASGNTSSINAMGWYRRAPGKQRELVAGISSDGSKVYYDSVKGRFTISRDNAKNSVYLQMNSLRAEDTAVYYCYYFRTVRGSSQRYWGQGTLVTVSSGGGGSGGGSGGGGSGGGSHHHHHH , please.
Return: 2.7
